# TARGET: EGFR (Homo sapiens)
# ASSAY: EGFR signaling (pEGFR Tyr1068/total EGFR MSD) in A431 cells
# Assay type: cell-based
# Parameters: endogenous in cells; host or cells: A431, N87
# MEASUREMENT_CONTEXT: ratio A431 pEGFR EC50 to HEK YVMA pHER2 EC50

SMILES_STRUCTURE | Selectivity A431 EC50/HEKYVMA EC50
CCN1CCN(C/C=C/C(=O)N2CCc3c(sc4ncnc(Nc5ccc(Oc6ccc(C)nc6)c(C)c5)c34)C2)CC1 | C (C: ≥ 10 and < 20)
Cc1ccc(Oc2ccc(Nc3ncnc4sc5c(c34)CCN(C(=O)/C=C/CN(C)C)C5)cc2C)cn1 | C (C: ≥ 10 and < 20)

* * *

# TARGET: EGFR (Homo sapiens, UniProt P00533)
# Sequence (P00533 25-1210): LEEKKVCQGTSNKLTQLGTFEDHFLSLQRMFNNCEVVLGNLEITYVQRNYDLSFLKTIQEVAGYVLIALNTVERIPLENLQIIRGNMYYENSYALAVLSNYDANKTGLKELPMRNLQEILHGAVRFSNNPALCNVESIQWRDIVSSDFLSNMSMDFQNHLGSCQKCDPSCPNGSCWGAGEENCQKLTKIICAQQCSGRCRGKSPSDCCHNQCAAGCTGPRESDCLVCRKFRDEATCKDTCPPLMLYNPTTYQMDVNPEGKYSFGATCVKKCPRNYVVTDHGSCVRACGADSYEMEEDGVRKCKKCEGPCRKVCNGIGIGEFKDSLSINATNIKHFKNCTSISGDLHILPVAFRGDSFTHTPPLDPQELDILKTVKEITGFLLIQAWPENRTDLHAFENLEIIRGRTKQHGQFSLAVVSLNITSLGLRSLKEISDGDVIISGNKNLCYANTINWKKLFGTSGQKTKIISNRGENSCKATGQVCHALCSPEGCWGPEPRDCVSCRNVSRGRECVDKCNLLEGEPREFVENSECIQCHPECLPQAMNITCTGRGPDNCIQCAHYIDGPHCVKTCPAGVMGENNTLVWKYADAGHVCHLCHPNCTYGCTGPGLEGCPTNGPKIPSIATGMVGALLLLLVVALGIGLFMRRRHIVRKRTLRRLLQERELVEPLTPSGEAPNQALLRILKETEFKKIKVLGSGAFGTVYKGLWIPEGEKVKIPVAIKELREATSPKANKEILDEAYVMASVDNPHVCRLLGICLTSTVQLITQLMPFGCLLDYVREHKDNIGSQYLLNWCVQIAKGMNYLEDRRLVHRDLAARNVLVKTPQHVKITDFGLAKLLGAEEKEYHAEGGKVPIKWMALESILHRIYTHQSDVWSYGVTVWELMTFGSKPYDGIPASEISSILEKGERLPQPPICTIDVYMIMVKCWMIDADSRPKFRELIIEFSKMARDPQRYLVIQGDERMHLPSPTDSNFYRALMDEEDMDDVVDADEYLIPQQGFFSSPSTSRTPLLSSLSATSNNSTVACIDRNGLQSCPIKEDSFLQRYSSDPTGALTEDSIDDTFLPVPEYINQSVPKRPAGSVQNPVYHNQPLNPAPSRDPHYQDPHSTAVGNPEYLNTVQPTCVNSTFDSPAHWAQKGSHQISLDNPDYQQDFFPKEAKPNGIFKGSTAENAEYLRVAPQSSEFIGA
# ASSAY: EGFR signaling (pEGFR Tyr1068/total EGFR MSD) in A431 cells
# Assay type: cell-based
# Parameters: endogenous in cells; host or cells: A431, N87
# MEASUREMENT_CONTEXT: ratio A431 pEGFR EC50 to HEK YVMA pHER2 EC50

COMPOUND | Selectivity A431 EC50/HEKYVMA EC50
Cc1ccc(Oc2ccc(Nc3ncnc4sc5c(c34)CCN(C(=O)/C=C/CN3CCn4cc(C(F)(F)F)nc4C3)C5)cc2C)cn1 | C (C: ≥ 10 and < 20)
Cc1ccc(Oc2ccc(Nc3ncnc4sc5c(c34)CCN(C(=O)/C=C/CN3CC4CC4C3)C5)cc2C)cn1 (stereo not shown) | C (C: ≥ 10 and < 20)
C=CC(=O)N1CCc2[nH]c3ncnc(Nc4ccc(Oc5ccc6ncnn6c5)c(C)c4)c3c2C1 | C (C: ≥ 10 and < 20)

* * *

# TARGET: UniProt P00533
# ASSAY: EGFR signaling (pEGFR Tyr1068/total EGFR MSD) in A431 cells
# Assay type: cell-based
# Design: endogenous in cells; host or cells: A431, N87
# MEASUREMENT_CONTEXT: ratio A431 pEGFR EC50 to HEK YVMA pHER2 EC50
VALUE_TYPE: Selectivity A431 EC50/HEKYVMA EC50

COMPOUND | Selectivity A431 EC50/HEKYVMA EC50
Cc1ccc(Oc2ccc(Nc3ncnc4sc5c(c34)CCN(C(=O)/C=C/CN(C)C)CC5)cc2Cl)cn1 | E (E: >1 and < 5)
Cc1ccc(Oc2ccc(Nc3ncnc4sc5c(c34)CN(C(=O)/C=C/CN(C)C)C5C)cc2C)cn1 (centres unmarked) | C (C: ≥ 10 and < 20)
Cc1ccc(Oc2ccc(Nc3ncnc4sc5c(c34)CCN(C(=O)/C=C/CN3CC(O)C3)C5)cc2C)cn1 | D (D: ≥ 5 and < 10)
COc1ccc(Oc2ccc(Nc3ncnc4sc5c(c34)CCN(C(=O)/C=C/CN(C)C)C5)cc2C)cn1 | C (C: ≥ 10 and < 20)
Cc1cc(Nc2ncnc3sc4c(c23)CCN(C(=O)/C=C/CN2CC3CCC(C3)C2)C4)ccc1Oc1ccc2ncnn2c1 | B (B: ≥ 20 and < 100)

[in] Given the compound Cc1cc(Nc2ncnc3sc4c(c23)CCN(C(=O)/C=C/CN(C)C(C)(C)C)C4)ccc1Oc1ccc2ncnn2c1 , what is its reported Selectivity A431 EC50/HEKYVMA EC50?
[out] B (B: ≥ 20 and < 100)

[in] Check Cc1cc(Nc2ncnc3sc4c(c23)CCN(C(=O)/C=C/CN(C)C)C4)ccc1Oc1ccc2cn[nH]c2c1 too.
[out] E (E: >1 and < 5)

[in] // next record Cc1ccc(Oc2ccc(Nc3ncnc4sc5c(c34)CCN(C(=O)/C=C/CNCc3ccsc3)C5)cc2C)cn1
[out] C (C: ≥ 10 and < 20)

[in] # repeat for COc1ccc(Oc2ccc(Nc3ncnc4sc5c(c34)CCN(C(=O)/C=C/CN(C)C)CC5)cc2C)cn1
[out] C (C: ≥ 10 and < 20)
